Entries and their measured pIC50 follow.
- measuredOn: TNFα / TNFα receptor (TNFα R1/Fc) (Homo sapiens, UniProt P01375)
- Construct: purchased R&D Systems
- Sequence (P01375 77-233 limits assumed, species assumed): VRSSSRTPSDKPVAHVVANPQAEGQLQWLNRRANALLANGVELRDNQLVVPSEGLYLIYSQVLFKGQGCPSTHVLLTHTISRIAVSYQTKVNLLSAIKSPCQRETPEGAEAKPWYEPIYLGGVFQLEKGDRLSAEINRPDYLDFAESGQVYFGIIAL
- measurementProtocol: Inhibition of binding of TNFα to the TNFα receptor (plate ELISA competition)
- conditionInfo: Table 2; read-out: Activity (IC50, inhibition of TNFα binding to TNFα R1/Fc)
pIC50: −log10 of the molar value. Numbered stars: 1 amine (or outer) side, 2 acyl side, 3 side chain; on linkers, the order of the positions; unused ones are H or OH. Bridge positions count the residues as written; N and C are the ends. Square brackets hold non-standard residues; d marks the D form. Peptide text beside a SMILES is read from it. Phe(4-CF3) = N[C@@H](Cc1ccc(C(F)(F)F)cc1)C(=O)O; Bip = N[C@@H](Cc1ccc(-c2ccccc2)cc1)C(=O)O; dPhe(4-NH2) = Nc1ccc(C[C@@H](N)C(=O)O)cc1; Phe(4-Br) = N[C@@H](Cc1ccc(Br)cc1)C(=O)O; Phe(4-NH2) = Nc1ccc(C[C@H](N)C(=O)O)cc1; dPhe(2-Cl) = N[C@H](Cc1ccccc1Cl)C(=O)O; d(hPhe) = N[C@H](CCc1ccccc1)C(=O)O; d2Thi = N[C@H](Cc1cccs1)C(=O)O; Suc = O=C(CCC(=O)[*:2])[*:1]

Answered cases to consult:
Assign pIC50 to the following record: O=C1CCC(=O)N[C@H](Cc2ccccc2Cl)C(=O)N[C@@H](Cc2ccc(C(F)(F)F)cc2)C(=O)N[C@H](Cc2ccccc2)C(=O)N[C@H](C(=O)O)Cc2ccc(cc2)N1 [Compound 132] ([dPhe(2-Cl)][Phe(4-CF3)][dF][Phe(4-NH2)]-OH; linker N-4 via Suc) 4.00 to 4.52

Assign pIC50 to the following record: O=C1COc2ccc(cc2)C[C@@H](C(=O)O)NC(=O)[C@H](Cc2ccccc2F)NC(=O)[C@@H](Cc2ccc(-c3ccccc3)cc2)NC(=O)[C@H](Cc2c[nH]c3ccccc23)N1 [Compound 733] > 5.00

Assign pIC50 to the following record: O=C1N[C@H](Cc2ccccc2)C(=O)N[C@@H](C(=O)O)Cc2ccc(cc2)NC(=O)[C@H](O)[C@@H](O)C(=O)N[C@H](Cc2ccccc2)C(=O)N[C@H]1Cc1ccc(Cl)cc1Cl [Compound 243] 4.00 to 4.52

Assign pIC50 to the following record: O=C(O)CC[C@H]1NC(=O)[C@H](Cc2ccc(-c3ccccc3)cc2)NC(=O)[C@@H](Cc2cccs2)NC(=O)CCC(=O)Nc2ccc(cc2)C[C@@H](C(=O)O)NC1=O [Compound 69] ([d2Thi][Bip][dE][Phe(4-NH2)]-OH; linker N-4 via Suc) < 4.00

Assign pIC50 to the following record: O=C(O)[C@H](Cc1ccccc1)NC(=O)[C@H]1Cc2ccc(cc2)NC(=O)[C@H](O)[C@@H](O)C(=O)N[C@@H](Cc2cccs2)C(=O)N[C@H](Cc2ccc(Br)cc2)C(=O)N[C@@H](Cc2ccccc2)C(=O)N1 [Compound 438] > 5.00

Assign pIC50 to the following record: O=C1COc2ccc(cc2)C[C@@H](C(=O)O)NC(=O)[C@H](CCc2ccccc2)NC(=O)[C@@H](Cc2ccc(-c3ccccc3)cc2)NC(=O)[C@H](Cc2cccnc2)N1 [Compound 662] > 5.00

***
Assign pIC50 to the following record: Cn1cnc(C[C@@H]2NC(=O)COc3ccc(cc3)C[C@@H](C(=O)O)NC(=O)[C@H](CCc3ccccc3)NC(=O)[C@@H](Cc3ccc(-c4ccccc4)cc3)NC2=O)c1 [Compound 706] 4.52 to 5.00

Assign pIC50 to the following record: O=C1CCC(=O)N[C@H](CCc2ccccc2)C(=O)N[C@@H](Cc2ccc(Br)cc2)C(=O)N[C@H](Cc2ccccc2)C(=O)N[C@@H](C(=O)N[C@@H](Cc2ccccc2)C(=O)O)Cc2ccc(cc2)N1 [Compound 440] ([d(hPhe)][Phe(4-Br)][dF][dPhe(4-NH2)]F-OH; linker N-4 via Suc) 4.52 to 5.00
